Here the recorded Prodrug (%) is given for each entry.
# method-description: Plasma stability assay, human plasma
# Type: in vitro ADME
# experimental-setup: human, 60 min, 10 µM
Field: numeric (%). Do not append units.

Known results for compounds:
INSERT INTO measurements (compound, unit_spec, measured_value) VALUES
  ('CCOC(=O)O[C@@H]1CC[C@@]2(c3ccc(OC)c(OC)c3)CCN(C)[C@H]2C1', '%', 87.6),
  ('CCCCC(=O)OC1CC[C@@]2(c3ccc(OC)c(OC)c3)CCN(C)[C@H]2C1 (stereo in doubt)', '%', 84.3);

**Query** Give its Prodrug (%) value. Item: `CCCC(=O)OCO[C@@H]1CC[C@@]2(c3ccc(OC)c(OC)c3)CCN(C)[C@H]2C1`
**Result** 0.6

**Query** Which value of Prodrug (%) has been reported for `CCCC(=O)O[C@H]1CC[C@@]2(c3ccc(OC)c(OC)c3)CCN(C)[C@H]2C1` in the records?
**Result** 79.39

###

Measured Prodrug (%) by item
# method-description: Plasma stability assay, rat plasma
# Format: in vitro ADME
# experimental-setup: rat, 240 min, 10 µM
# value in %; strip the unit string

INSERT INTO measurements (compound, endpoint_label, unit_spec, measured_value) VALUES
  ('COc1ccc([C@@]23CC[C@H](OC(=O)C(C)C)C[C@@H]2N(C)CC3)cc1OC', 'Prodrug (%)', '%', 0.0),
  ('COc1ccc([C@@]23CC[C@@H](OCOC(=O)C(C)C)C[C@@H]2N(C)CC3)cc1OC', 'Prodrug (%)', '%', 0.0),
  ('COc1ccc([C@@]23CC[C@H](OC(=O)C(C)(C)C)C[C@@H]2N(C)CC3)cc1OC', 'Prodrug (%)', '%', 15.4),
  ('CCOC(=O)O[C@@H]1CC[C@@]2(c3ccc(OC)c(OC)c3)CCN(C)[C@H]2C1', 'Prodrug (%)', '%', 0.0),
  ('CCCC(=O)OC1CC[C@@]2(c3ccc(OC)c(OC)c3)CCN(C)[C@H]2C1 (stereo in doubt)', 'Prodrug (%)', '%', 0.0);

**Query** Could you tell me which Prodrug (%) is on file for `COc1ccc([C@@]23CC[C@@H](OC(=O)C(C)C)C[C@@H]2N(C)CC3)cc1OC` ?
**Result** 0.0

**Query** Could you tell me which Prodrug (%) is on file for `CCCC(=O)O[C@H]1CC[C@@]2(c3ccc(OC)c(OC)c3)CCN(C)[C@H]2C1` ?
**Result** 0.1

**Query** Name the reported Prodrug (%) value associated with the compound `CCCCC(=O)O[C@H]1CC[C@@]2(c3ccc(OC)c(OC)c3)CCN(C)[C@H]2C1`
**Result** 0.0

**Query** Dear colleague, I am looking for the recorded Prodrug (%) of the following compound: `CCCC(=O)OCO[C@@H]1CC[C@@]2(c3ccc(OC)c(OC)c3)CCN(C)[C@H]2C1`
**Result** 0.1

**Query** Dear colleague, I am looking for the recorded Prodrug (%) of the following compound: `COc1ccc([C@@]23CC[C@H](OC(=O)N(C)C)C[C@@H]2N(C)CC3)cc1OC`
**Result** 92.2

###

# Prodrug (%) per entry
# method-description: Plasma stability assay, rat plasma
# Format: in vitro ADME
# experimental-setup: rat, 30 min, 10 µM
# Procedure: Compound stability in rat and human plasma was measured by incubating compound with rat or human plasma at 37° C. in a microwell plate for sequential time points, monitoring pro-drug disappearance and metabolite appearance (mesembranol or 6-epi-mesembranol). A 2 mM stock solution of test compounds were prepared by dissolving appropriate amount of compounds in DMSO. […] The concentrations of test compounds and positive control were quantified in the test samples using LC-MS/MS. […]

INSERT INTO assay_data (molecule, measured_value) VALUES
  ('CCCC(=O)OC1CC[C@@]2(c3ccc(OC)c(OC)c3)CCN(C)[C@H]2C1 (stereo in doubt) [Compound 206]', '0.1%'),
  ('CCCCC(=O)OC1CC[C@@]2(c3ccc(OC)c(OC)c3)CCN(C)[C@H]2C1 (stereo in doubt) [Compound 205]', '0.1%'),
  ('COc1ccc([C@@]23CC[C@H](OC(=O)C(C)C)C[C@@H]2N(C)CC3)cc1OC [Compound 103]', '12.2%');

Proceeding to the next molecule to report its Prodrug (%).
**Query** Quick one: Prodrug (%) of CCCCC(=O)O[C@H]1CC[C@@]2(c3ccc(OC)c(OC)c3)CCN(C)[C@H]2C1 [Compound 105] ?
**Result** 0.5%
